target: hMPV A1 F (human metapneumovirus); experiment: ELISA on coated recombinant protein, OD 405 nm
MEASUREMENT_KIND: EC50 (µg/mL)
One number for each entry, in µg/mL.

Here is how some binders turned out for EC50.
In: Find the measured EC50 of MPV464 (antibody, V domains shown) VH: QVQLQESGPGLVKPSQTLSLTCTVSGGSVRGGGDYWSWIRRPPGKGLEWIGHIYNSGTTFYNPSLKSRVTISIDTSKNQFSLKLRSVTAADTAVYYCGRVGSRATGLPDWIDPWGQGTLVTVSS VL: SYELTQPPSVSVSPGQTATITCSGTNLGAKYSCWYQQKPGQSPVLVIFQDNKRASGIPARFSASTSGDTATLTISGTQVMDEADYFCQAWDSRTAVFGGGTTLTVL and report it.
Out: 0.28

In: Find the measured EC50 of MPV456 (antibody, V domains shown) VH: QVQLQESGPGVVKPSGTLSLTCGVSGGSISSSYWWSWVRQPPGKGLEWIGEIYHSGSTNYNPSLKRRVTISVDKSKNQFSLKVTSVTAADTAVYYCARGPIQYYDILTEERVGYCDYWGQGTLVTVSS VL: TLSASVGDRVTITCRASQSISSWLAWFQQKPGKAPKLLIYKTSSLESGVPSRFSGSGSGTEFTLTISSLQPDDFATYYCQEYNSYSRTFGQGTKVEIK and report it.
Out: 1.4

Shifting focus to the binder that follows.
In: Find the measured EC50 of MPV486 (antibody, V domains shown) VH: EVQLVESGGHLVQSGGSLRLSCAASGFTFSNYILNWVRQAPGKGLEWISYITGGSSAIYYADSVKGRFTISRDDAKNSLYLQMNNLRAEDTAVYYCARSHGYDSSGYYYYFAMDVWGQGTTVTVSS VL: QSVLTQPPSASGTPGQRVTISCSGSNSNIESNTVNWYQQIPGTAPKLLIYSDNRRPSGVPDRFSGSKSGTSASLAISGLQSEDEADYYCAAWDDSLIGYVFGTGTKVTV and report it.
Out: 0.053

Entry source: patent US20250188153A1
